Ref: the supplement of paper PMC4380931

system: C32; experiment: relative viability (cell count relative to DMSO-treated control) (fraction of DMSO control); higher = more viable cells / less drug effect; details: 48 h; 0.01 µM
relative viability values by entry

Need relative viability of `Cn1cnc2c(F)c(Nc3ccc(Br)cc3Cl)c(C(=O)NOCCO)cc21` , thanks. 1.09

Next record, please: `Cc1ccc(NC(=O)c2cccc(C(C)(C)C#N)c2)cc1Nc1ccc2ncn(C)c(=O)c2c1` 1.14

Next record, please: `CCCS(=O)(=O)Nc1ccc(F)c(C(=O)c2c[nH]c3ncc(-c4ccc(Cl)cc4)cc23)c1F` 0.901

Next record, please: `CCCS(=O)(=O)Nc1ccc(F)c(C(=O)c2c[nH]c3ncc(Cl)cc23)c1F` 0.905

Now consider a different compound.
Need relative viability of `CN(C)CCOc1ccc(-c2nc(-c3ccncc3)c(-c3ccc4c(c3)CC/C4=N\O)[nH]2)cc1` , thanks. 1.04
